- tested-target: Sulfolobus CYP119 (cytochrome P450 119, parent sequence SEQ ID NO: 1), apo form, CYP119-141 mutant (C317G, T213G, V254L, L155W) (Sulfolobus acidocaldarius, UniProt Q55080, C317G/L155W/T213G/V254L)
- Construct: made in house
- Sequence (Q55080 whole entry L155W/T213G/V254L/C317G): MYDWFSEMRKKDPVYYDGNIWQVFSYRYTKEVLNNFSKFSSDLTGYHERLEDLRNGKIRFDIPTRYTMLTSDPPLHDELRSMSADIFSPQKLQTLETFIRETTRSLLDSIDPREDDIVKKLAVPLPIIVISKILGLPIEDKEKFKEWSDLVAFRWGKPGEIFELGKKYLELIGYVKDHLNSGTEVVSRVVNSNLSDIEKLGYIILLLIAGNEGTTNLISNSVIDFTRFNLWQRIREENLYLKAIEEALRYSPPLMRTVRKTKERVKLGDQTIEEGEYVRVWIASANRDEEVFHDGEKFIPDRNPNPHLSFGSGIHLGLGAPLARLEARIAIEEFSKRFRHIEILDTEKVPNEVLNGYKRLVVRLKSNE
- procedure-details: Binding affinity of apo-CYP119 towards Ir(Me)MPIX/hemin (intrinsic fluorescence quenching, Benesi-Hildebrand)
- Design: species or system Sulfolobus solfataricus
- particulars: excitation 294 nm, 10 mM TRIS buffer pH 8.0, Benesi-Hildebrand analysis
pKd: −log10 of the molar value.

| compound | pKd |
| --- | --- |
| C=CC1=C(C)c2cc3[nH]c(cc4nc(cc5[nH]c(cc1n2)c(C)c5CCC(=O)O)C(CCC(=O)O)=C4C)c(C)c3C=C.[Fe+3] [Fe(Cl)PPIX, reference compound] | 5.82 |

Reference source for all entries: patent US12129493B2
